System: SN12C renal
Test: NCI-60 one-dose screen, 48 h (100 = growth as untreated, 0 = no growth, -100 = all killed)
Conditions: 10 µM unless noted
This is part of a sample that, as a whole, favours compounds with a hit. Of some 83,000 tested, about 20% had one in any assay.
Please assign NO whenever growth is at or above 70%, and YES whenever it is below.

Here's what some known entries look like.
Cc1ccc2c(C(C[N+](=O)[O-])c3cccs3)c(-c3ccccc3)[nH]c2c1 (configuration not stated) ... YES
ClCCN(CCCl)c1ccc(/C=N\N=C\c2ccc(N(CCCl)CCCl)cc2)cc1 ... YES
COC1=CC(=O)O[C@@H](/C=C/c2ccc3c(c2)OCO3)C1 ... NO

For this molecule, is growth lower than 70%? C[C@@H]1C[C@@]2(C)[C@@H](CC[C@@H]3[C@@H]2CC[C@]2(C)C(=O)CC[C@@H]32)CC1=O
NO

Further, for CC(=O)O[C@H](C[C@H](C(C)C)N(C)C(=O)[C@@H](NC(=O)[C@H]1CCCCN1C)C(C)C)c1nc(C(=O)N[C@@H](Cc2ccccc2)C[C@H](C)C(=O)O)c(C(C)C)s1 ?
YES

Can you check c1ccc(CSC(c2ccccc2)c2ccccc2)cc1 next?
NO

Further, for CNC(=O)Oc1ccc2c(c1)OCO2 ?
NO

Ok, now O=C(O)c1ccc([S-])cc1.[Au+].c1ccc(CN2[CH-]N(Cc3ccccc3)C(c3ccccc3)=C2c2ccccc2)cc1
YES

Again, but for Oc1ccc2c3c1OC1[C@@H](O)CC[C@@]4(O)[C@@H](C2)N(CC2CCC2)CC[C@]314 (some centres not stated)
NO

For C/C(=C\c1ccn(-c2ccc(N)cc2C(F)(F)F)n1)[C@@H]1C[C@@H]2O[C@]2(C)CCC[C@H](C)[C@H](O)[C@@H](C)C(=O)C(C)(C)[C@@H](O)CC(=O)O1 then?
YES

Field entry: COC(=O)[C@H](Cc1ccccc1)NNC(=O)c1csc([C@@H](C[C@H](C(C)C)N(C)C(=O)[C@@H](NC(=O)[C@H]2CCCCN2C)C2CC2)OC(C)=O)n1
YES

Next entry: NC1CC2CCCCC2CC1(O)c1ccccc1 (configuration not stated)
NO
